Kindly state GI50 for each of the entries shown.
# Tested on: HOP-62 NSCLC
# procedure.summary: NCI tumour cell line growth inhibition, 48 h

Param readout= GI50; system= HOP-62 NSCLC; entry= CN(Cc1cnc(N)nc1N)c1ccc(C(=O)O)cc1 ; returns value.
> 100 µM

Param readout= GI50; system= HOP-62 NSCLC; entry= Cc1oc2nc[nH]c(=O)c2c1C(=O)/C=C/c1ccc(Cl)cc1 ; returns value.
2.83 µM

Param readout= GI50; system= HOP-62 NSCLC; entry= COc1ccc2c(c1)[C@]1(C[C@H]1c1ccc3c(/C=C/c4ccc(CN5C[C@@H](C)O[C@@H](C)C5)cc4)n[nH]c3c1)C(=O)N2 ; returns value.
8.81 µM

----------
# System: OVCAR-4 ovarian
# procedure.summary: NCI tumour cell line growth inhibition, 48 h; in the data active = GI50 below about 0.43 µM; inactive = the rest
Could you please pick one outcome from this set? active, inactive

Lab log entry: CCCCN(CCCC)c1ccc(C(=N)c2ccc(N(C)C)cc2)cc1 — outcome as called in the assay?
active

Lab log entry: Cc1c(C)c2c(c(C)c1NC(=O)/C=C\C(=O)O)CCC(C)(CCCC(C)CCCC(C)CCCC(C)C)O2 (configuration not stated) — outcome as called in the assay?
inactive

Lab log entry: COc1cc(/C=N/Nc2ncnc3c2cnn3C(C)C)ccc1O — outcome as called in the assay?
inactive

Lab log entry: C=C1C(=O)O[C@H]2[C@H]1CC/C(Cn1cc(CNCCc3c[nH]c4ccc(Cl)cc34)nn1)=C\CC[C@@]1(C)O[C@@H]21 — outcome as called in the assay?
inactive

Lab log entry: C=CCn1c(=O)c2cnc(Nc3ccc(N4CCN(C)CC4)cc3)nc2n1-c1ccc2c(n1)[C@@](O)(CC)CC2 — outcome as called in the assay?
inactive

Lab log entry: CN(C)c1ccc2c(c1)CN1C(=O)c3ccccc3C1=N2 — outcome as called in the assay?
inactive

Lab log entry: CN(Cc1cnc(N)nc1N)c1ccc(C(=O)O)cc1 — outcome as called in the assay?
inactive

Lab log entry: CC(=O)[CH-]C(=O)c1ccccc1.CC(=O)[CH-]C(=O)c1ccccc1.COc1cccc([O-])c1[O-].[Ti+4] — outcome as called in the assay?
inactive

Lab log entry: COc1cccc(C(=O)Nc2ccc(CN3CCc4nc5cc(OC)c(OC)cc5cc43)cc2)c1 — outcome as called in the assay?
inactive

Lab log entry: COc1cc(-c2nn(-c3ccc(NC(=O)Nc4ccc(Cl)c(Cl)c4)cc3)cc2-c2ccncc2)ccc1Cl — outcome as called in the assay?
inactive

Lab log entry: Cn1cc(C2=C(c3c4n(c5ccccc35)CCCC4)C(=O)NC2=O)c2ccccc21 — outcome as called in the assay?
inactive

Lab log entry: COc1ccc(C[n+]2c3ccccc3n3c4ccc(N)cc4ccc32)c(OC)c1OC — outcome as called in the assay?
inactive

----------
# Test system: CCRF-CEM leukemia
# procedure.summary: NCI tumour cell line growth inhibition, 48 h
Kindly state TGI for each of the entries shown.

Which value of TGI has been reported for O=S1CSCS1 (configuration not stated) in the records?
> 100 µM

Which value of TGI has been reported for O=C(C/C(=N\NC(=O)C[n+]1ccccc1)C(=O)Nc1nc2ccc([N+](=O)[O-])cc2s1)CC(c1ccccc1)c1c(O)c2ccccc2oc1=O (configuration not stated) in the records?
> 100 µM

Which value of TGI has been reported for CC1SC(c2ccccc2)N(Nc2c3ccccc3nc3ccccc23)C1=O (configuration not stated) in the records?
> 100 µM

Which value of TGI has been reported for NC(=O)c1cc(-c2ccc(-n3ccnc3)cc2)n[nH]c1=O in the records?
> 100 µM

Which value of TGI has been reported for O=C(O)C1CCc2nnc(-c3ccccc3)n21 (configuration not stated) in the records?
> 100 µM

Which value of TGI has been reported for COc1c(C2=NC(C(C)C)CO2)ccc2ccccc12 (configuration not stated) in the records?
> 100 µM

Which value of TGI has been reported for CCCCC1Cc2ccccc2-c2n1c1ccccc1[n+]2C (configuration not stated) in the records?
> 100 µM

Which value of TGI has been reported for O=C(N/C(=C\c1ccccc1[N+](=O)[O-])c1nc2ccccc2[nH]1)c1ccccc1 in the records?
> 100 µM

Which value of TGI has been reported for COc1ccc(C2=C(Cl)c3cc(OC)c(OC)cc3C2=O)cc1OC in the records?
> 100 µM

Which value of TGI has been reported for CN(C)c1ccc(-c2ccc(-c3ccc(C(=N)N)c(F)c3)s2)cc1 in the records?
1.26 µM

Which value of TGI has been reported for COc1cc(-c2nn(-c3ccc(NC(=O)Nc4ccc(Cl)c(Cl)c4)cc3)cc2-c2ccncc2)ccc1Cl in the records?
> 100 µM

Which value of TGI has been reported for O=C(/C=C1\C(=O)N(Cc2ccc([N+](=O)[O-])cc2)c2ccccc21)c1ccc(OCCN2CCCCC2)cc1 in the records?
2.35 µM

Which value of TGI has been reported for NCC[Se][Se]CCN in the records?
45.6 µM

Which value of TGI has been reported for CCOC(=O)N1CCN(c2c(C)nc(C)[nH]c2=O)CC1 in the records?
> 100 µM

Which value of TGI has been reported for N=CCCN(CCC=N)c1ccc(/C=C2\CN(NC(=O)c3ccc(Cl)cc3)C(c3ccccc3)=N2)cc1 in the records?
> 100 µM

Which value of TGI has been reported for COc1cc([N+](=O)[O-])c(S(=O)(=O)O)cc1NS(=O)(=O)c1ccc(C)cc1 in the records?
> 100 µM

Which value of TGI has been reported for COc1ccc(OC)c([N+](=O)[O-])c1-c1nc2sccn2c1/C=N/N=C(N)N in the records?
> 100 µM

Which value of TGI has been reported for N=C(N)C1CN(CCc2cnc[nH]2)C(=O)NC1=O (configuration not stated) in the records?
> 100 µM

Which value of TGI has been reported for O=c1oc2cc(N=Cc3ccccc3Cl)ccc2c2ccccc12 in the records?
> 100 µM

Which value of TGI has been reported for CC(=O)NC1=C(C)C(=O)c2c(nc3n2CCC3OC(=O)c2ccccc2)C1=N (configuration not stated) in the records?
9.71 µM

Which value of TGI has been reported for CC1(C)CCC[C@@]2(C)C1C[C@H](O)[C@@]1(C)O[C@@](C)([C@H](O)CO)CCC21 (some centres not stated) in the records?
> 100 µM

Which value of TGI has been reported for CO[C@H]1O[C@@H]2CO[C@@H](c3ccccc3)O[C@H]2[C@@H]2CC=CCC[C@]12O in the records?
> 100 µM
